Molecular target: human carbonic anhydrase 9 (CAIX) (human, UniProt Q16790 38-459)
Experiment: FACS competition on HT-29 cells, competitor tracer 3BP-2776; category A = pIC50 >8.0
Description: CAIX-expressing human HT-29 colorectal cancer cells (DSMZ, RRID: CVCL_0320) were cultured in McCoys's 5A modified medium (Biochrom, #F1015) including 10% fetal calf serum (FCS), 2 mM L-glutamine, 100 U/ml penicillin and 100 μg/mL streptomycin. […] Cells were washed twice with ice-cold FACS buffer and analyzed in an Attune NxT flow cytometer (Thermo Fisher). Median fluorescence intensities (MFI) of the APC/Cy5-channel were calculated by Attune NxT software.
Starred links: 1 amine or outer side, 2 acyl side, 3 side chain; linkers in the order of their positions; H or OH if unused. Positions of bridges follow the written chain, without caps; N, C: chain ends. Non-standard residues stand in square brackets, D forms with d. Primed or numbered codes have the meaning given here. *: point of attachment. Af3(HO-Succinyl) = 3-aminophenylalanine with succinyl (free acid) on the ring amine, O=C(CCC(=O)[*:3])Nc1cccc(C[C@H](N[*:1])C(=O)[*:2])c1; APAc″ = 2-(4-(amino)piperidin-1-yl)acetic acid, NC1CCN(CC(=O)*)CC1; DOTA = O=C(O)CN1CCN(CC(=O)O)CCN(CC(=O)*)CCN(CC(=O)O)CC1; Trp(7-aza) = N[C@@H](Cc1c[nH]c2ncccc12)C(=O)O; mXylylene = c1cc(C[*:1])cc(C[*:2])c1; Inp′ = not defined here; Dap = NC[C@H](N)C(=O)O
Measured pIC50 values are reported for all entries that follow.
PARAMETER MEASURED: pIC50

[[record]]
binder = "{DOTA-Inp′}-DCE[dP]DWLTW[Dap]C-NH2 (lactam 10-1; linker 2-11 via mXylylene) [3BP-4256]"
meas_value = "> 8 pic50"

[[record]]
binder = "{DOTA-APAc″}-VYCE[dP]DWLT[Trp(7-aza)]SC-NH2 (linker 3-12 via mXylylene) [3BP-4159]"
meas_value = "> 8 pic50"

[[record]]
binder = "{DOTA-APAc″}-VYCE[dP]D[Af3(HO-Succinyl)]LTWSC-NH2 (linker 3-12 via mXylylene) [3BP-4237]"
meas_value = "> 8 pic50"

